- study_system: Induced myeloid leukemia cell differentiation protein Mcl-1 (Homo sapiens, UniProt Q07820)
- Sequence (Q07820 whole entry): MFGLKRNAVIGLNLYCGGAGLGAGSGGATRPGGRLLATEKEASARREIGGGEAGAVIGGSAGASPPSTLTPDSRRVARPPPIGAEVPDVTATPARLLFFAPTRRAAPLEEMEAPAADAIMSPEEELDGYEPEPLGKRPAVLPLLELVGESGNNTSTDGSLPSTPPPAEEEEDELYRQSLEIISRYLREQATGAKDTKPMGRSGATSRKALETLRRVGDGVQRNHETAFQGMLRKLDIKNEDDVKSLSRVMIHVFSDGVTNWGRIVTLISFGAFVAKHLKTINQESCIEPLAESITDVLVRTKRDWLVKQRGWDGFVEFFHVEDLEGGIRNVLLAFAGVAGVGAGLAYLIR
- Type: functional
Activity calls are given as the source filed them.
quantity_kind: IC50

compound	quantity_kind	result
NC(=S)n1nc(-c2ccc([N+](=O)[O-])cc2)c(/N=N/c2cccc(Cl)c2)c1O	IC50	1440 nM (active)

Fill in the blank: the reported IC50 of O=C(NCCCCc1ccccc1)C1CC(c2ccccc2[N+](=O)[O-])=NO1 (stereo not given) is ____. 7550 nM (not active)

Queued: Cn1c(=O)c(C(=O)COC(=O)c2cc(-c3ccco3)nc3ccccc23)c(N)n(Cc2ccccc2)c1=O 2020 nM (active)

Queued: Cc1cc(NC(=O)Cc2cccs2)no1 1580 nM (active)

Queued: CSC1=N/C(=C\c2ccccc2F)C(=O)S1 24700 nM (not active)

Queued: Cc1ccc(NC(=O)CN2C(=O)N/C(=C/c3cc(C)n(-c4ccc(C(=O)O)cc4)c3C)C2=O)cc1 4550 nM (active)

Queued: O=C1CC(=O)c2c1cccc2[N+](=O)[O-] 3520 nM (active)

Queued: CC(/C=C1\SC(=S)N(CCCC(=O)Nc2ccc(C(=O)O)c(O)c2)C1=O)=C\c1ccccc1 1560 nM (active)

Queued: O=C(Nc1ccc(N2CCOCC2)cc1)Nc1ccc(Cl)c(Cl)c1 19500 nM (not active)

Queued: COc1ccc2c(c1)c1ccc3c(c1n2C)C(=O)C=CC3=O 946 nM (active)
